Reference source: ChEMBL document CHEMBL4513216

Listing of recorded cytotoxicity at 10 µM by entry.
- Experimental Protocol: Toxicity liver stage against HepG2, at 10uM
- Format: cell-based
- Parameters: test concentration 10 uM, cell line HepG2-A16-CD81EGFP
- Experimental Parameters: human, HepG2-A16-CD81EGFP cells; read-out: INHIBITION

Compound | Measurement Units | cytotoxicity at 10 µM
Cc1ccc(CNC(=O)c2nn(C)c3c2CS(=O)(=O)CC3)o1 | % | 6.14
Cc1nn(C)cc1-c1ccnc(N(C)Cc2cnn(C)c2)n1 | % | 19.9
CN(Cc1ccncc1)C1COC2(CCN(Cc3ccsc3)CC2)C1 (stereo unspecified) | % | -91.8
COC1(CNC(=O)NCCOc2ccccc2)CCSC1 (stereo unspecified) | % | -0.572
Cc1nccn1CCCN1CCCC(c2nccn2C)C1 (stereo unspecified) | % | -10.3
CC(C)OCCOCC(O)CN(C)C(=O)Nc1ccc(F)cc1Cl (stereo unspecified) | % | 10.7

====

- Experimental Protocol: Toxicity liver stage against HepG2, at 10uM
- Assay type: cell-based
- Set-up: test concentration 10 uM, cell line HepG2-A16-CD81EGFP
- Experimental Parameters: human, HepG2-A16-CD81EGFP cells; read-out: INHIBITION
Listing of recorded cytotoxicity at 10 µM by entry.

Compound | cytotoxicity at 10 µM [%]
CN(C)C(=O)c1cnc2n1CCN(Cc1ccccc1)C2 | 7.05
CNC(=O)C1CCCCN1C(=O)c1csc(-c2ccc(C)cc2)n1 (centres undefined) | 11.6
CCOc1cccc(CSC(C)c2nc(C)no2)n1 (centres undefined) | -22.6
NCC1(c2cccc(C(F)(F)F)c2)CCCCC1 | -8.66
CN(C)C(=O)[C@H]1CC[C@@H]2[C@@H](CCN2Cc2ccccn2)O1 | 3.21
COc1ccc2c(c1)c(-c1nc(C)ncc1CN)cn2C | 21.7
Cc1cnccc1CN1CCN(C)C2(CCC(=O)N(CC3CC3)CC2)C1 (centres undefined) | -3.51
Cc1cc(=O)n(CC(=O)NCC2CCCO2)c(-c2ccccc2)n1 (centres undefined) | -14.6
Cc1occc1C(=O)N1C[C@@H](C(=O)N2CCCCO2)C[C@H]2OCC[C@H]21 | 12.1
Cc1cc(C)n(-c2cncc(NCCC(=O)NC(C)C)n2)n1 | 1.06
CCN(C(=O)NCc1ccc(C)cc1OC)C(C)c1cccnc1 (centres undefined) | 6.32
COc1ccc(C2CNCCN2C(=O)c2nccc3ccccc23)cc1 (centres undefined) | 4.1
CC(=O)N(Cc1ncc(C(C)C)o1)C1CCN(Cc2cc(C)on2)C1 (centres undefined) | -6.78
CC1CCN(CCNC(=O)C2CCN(C(=O)NC(C)C)CC2)CC1 | 8.21
Cc1noc(C)c1CS(=O)(=O)CC(=O)N(C)Cc1cccc(F)c1 | -8.1
COCc1ccccc1NCc1csc(NC(C)=O)n1 | -1.36
O=S(=O)(C1CC1)N1CCC2(CC1)CC(Oc1cccnc1)CO2 (centres undefined) | -2.27
CCCOc1cccc(-c2nc3c([nH]2)CCNC3)c1 | -3.38
Cc1cc(C(=O)N2CCc3ncnc(-c4cnn(C)c4)c3CC2)no1 | 8.88
O=C(O)CCc1cc2n(n1)CCCN(C(=O)c1ccc(Cl)s1)C2 | -6.06
COCCOc1cccc(C(=O)N2CCCCC2c2nccs2)c1 (centres undefined) | -9.5
Cc1ccccc1CC1(C(=O)O)CCCN(c2ncnc3[nH]ccc23)C1 (centres undefined) | 3.63
COCc1cn(C2CCN(C(=O)c3ccc(F)c(C)c3)CC2)nn1 | -0.723
CC(C)CCN(c1cn[nH]c1)S(=O)(=O)c1cccc(C#N)c1 | 7.95
